# measuredTarget: Neutrophil elastase (Homo sapiens, UniProt P08246)
# Sequence (P08246 whole entry): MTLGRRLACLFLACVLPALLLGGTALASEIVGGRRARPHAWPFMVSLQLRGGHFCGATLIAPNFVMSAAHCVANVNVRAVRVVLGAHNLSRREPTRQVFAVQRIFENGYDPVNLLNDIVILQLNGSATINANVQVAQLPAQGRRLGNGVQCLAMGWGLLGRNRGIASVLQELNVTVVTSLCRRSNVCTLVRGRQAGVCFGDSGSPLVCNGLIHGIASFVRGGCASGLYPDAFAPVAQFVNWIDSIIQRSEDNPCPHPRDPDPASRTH
# assayText: Inhibition of neutrophil elastase in human plasma using MeOSuc-Ala-Ala-Pro-Val-AMC as substrate by fluorescence assay
recordedEndpoint: EC50 (nM)
Kindly provide the numeric value in nM only, without the unit symbol.

Provide the documented EC50 with Neutrophil elastase (Homo sapiens, UniProt P08246) as the system for N#Cc1ccc(C2C3=C(CCC3=O)N(c3cccc(C(F)(F)F)c3)C(=O)N2CC(=O)N2CCC2)cc1 (configuration not stated)
4

====

# measuredTarget: Neutrophil elastase (Homo sapiens)
# assayText: Inhibition of human neutrophil elastase using MeOSuc-Ala-Ala-Pro-Val-AMC as substrate after 15 mins by fluorescence assay
recordedEndpoint: IC50 (nM)
Number in nM, nothing else.

Lab note: need IC50 for N#Cc1ccc(C2C3=C(CCC3=O)N(c3cccc(C(F)(F)F)c3)C(=O)N2CC(=O)N2CCC2)cc1 (configuration not stated) on Neutrophil elastase (Homo sapiens), anyone have it?
3.7

Where these numbers come from: ChEMBL document CHEMBL3351314
